- ASSAY_TEXT: Pharmacokinetic analysis in male SD rats
- Assay type: in vivo
- MEASUREMENT_CONDITIONS: Sprague-Dawley (SD), rat, plasma, 5.0 mg/kg po
Listed here: items and their measured half-life.
Hi! Could you send only the number? It should be in h, unit omitted.

Here are 3 molecules together with their reported answers.
Cc1cc(-n2nc3c(c2-n2ccn(-c4ccc5c(cnn5C)c4F)c2=O)[C@H](C)N(C(=O)c2cc4cc([C@H]5CCOC(C)(C)C5)ccc4n2[C@@]2(c4noc(=O)[nH]4)C[C@@H]2C)CC3)cc(C)c1F [Orforglipron, orforglipron, reference compound] ... 7.44
Cc1cc(-n2nc3c(c2-n2ccn(-c4ccc5c(cnn5C)c4F)c2=O)[C@@H]2CC[C@H](C3)N2C(=O)c2cc3cc([C@H]4CCOC5(CC5)C4)ccc3n2[C@@]2(c3noc(=O)[nH]3)C[C@@H]2C)cc(C)c1F [Compound 214] ... 5.14
Cc1cc(-n2nc3c(c2-n2ccn(-c4ccc5c(cnn5C)c4F)c2=O)[C@@H]2CC[C@H](C3)N2C(=O)c2cc3cc([C@H]4CCOC(C)(C)C4)ccc3n2[C@@]2(c3noc(=O)[nH]3)C[C@@H]2C)cc(C)c1F [Compound 36] ... 4.93

Then there is this molecule:
Prompt line: Need half-life of Cc1cc(-n2nc3c(c2-n2ccn(-c4ccc5c(cnn5C)c4F)c2=O)[C@@H]2COC[C@H](C3)N2C(=O)c2cc3cc([C@H]4CCOC(C)(C)C4)ccc3n2[C@@]2(c3noc(=O)[nH]3)C[C@@H]2C)cc(C)c1F [Compound 121] , thanks.
Response line: 3.47
